# Test system: ABUTH (Velvetleaf)
# protocol: Preemergence herbicidal evaluation
# Type: in vivo, Abutilon theophrasti
# conditions: rate 0.0625 kg/ha; rated 4-5 weeks after treatment
# Text: Results of herbicide evaluation are expressed on a rating scale (0-9). The scale is based upon a visual observation of plant stand, vigor, malformation, size, chlorosis and overall plant appearance as compared with a control. […] The compounds evaluated are reported by compound number given in Example 37.
reported.property: Preemergence herbicidal rating ABUTH

>>> val("C[C@@H](C(=O)OC(C)(C)C)N1C(=O)CSC1=Nc1cc(-n2c(=O)cc(C(F)(F)F)n(C)c2=O)c(F)cc1Cl")
9.0
>>> val("CCOC(=O)CN1C(=O)C(C(=O)OC)SC1=Nc1cc(-n2c(=O)cc(C(F)(F)F)n(C)c2=O)c(F)cc1Cl (stereo not shown)")
1.0
>>> val("CCOC(=O)[C@H](Cc1ccccc1)N1C(=O)CSC1=Nc1cc(-n2c(=O)cc(C(F)(F)F)n(C)c2=O)c(F)cc1Cl")
9.0
>>> val("CC(C)COC(=O)CN1C(=O)CSC1=Nc1cc(-n2c(=O)cc(C(F)(F)F)n(C)c2=O)c(F)cc1Cl")
9.0
>>> val("Cn1c(C(F)(F)F)cc(=O)n(-c2cc(N=C3NC(=O)CS3)c(Cl)cc2F)c1=O")
1.0
>>> val("Cc1ccccc1CN1C(=O)CSC1=Nc1cc(-n2c(=O)cc(C(F)(F)F)n(C)c2=O)c(F)cc1Cl")
9.0
>>> val("COC(=O)CCCN1C(=O)CSC1=Nc1cc(-n2c(=O)cc(C(F)(F)F)n(C)c2=O)c(F)cc1Cl")
9.0

====

# System: IPOHE (Morningglory, Ivyleaf)
# protocol: Preemergence herbicidal evaluation
# Type: in vivo, Ipomoea hederacea
# conditions: rate 0.1250 kg/ha; rated 4-5 weeks after treatment
reported.property: Preemergence herbicidal rating IPOHE

>>> val("CCOC(=O)CN1C(=O)C(Cc2ccccc2OC)SC1=Nc1cc(-n2c(=O)cc(C(F)(F)F)n(C)c2=O)c(F)cc1Cl (centres unmarked)")
0.0
>>> val("CCOC(=O)CN1C(=O)C(Cc2ccccc2OCC(=O)O)S/C1=N/c1cc(-n2c(=O)cc(C(F)(F)F)n(C)c2=O)c(F)cc1Cl (centres unmarked)")
0.0
>>> val("CCOC(=O)CN1C(=O)C(CC(=O)O)SC1=Nc1cc(-n2c(=O)cc(C(F)(F)F)n(C)c2=O)c(Cl)cc1Cl (centres unmarked)")
0.0
>>> val("C#CCOC(=O)CC1SC(=Nc2cc(-n3c(=O)cc(C(F)(F)F)n(C)c3=O)c(F)cc2Cl)N(CC=C)C1=O (centres unmarked)")
3.0
>>> val("COC(=O)C(C)OC(=O)CN1C(=O)CSC1=Nc1cc(-n2c(=O)cc(C(F)(F)F)n(C)c2=O)c(F)cc1Cl (centres unmarked)")
1.0
>>> val("C=CCN1C(=O)C(CC(=O)OC)SC1=Nc1cc(-n2c(=O)cc(C(F)(F)F)n(C)c2=O)c(F)cc1Cl (centres unmarked)")
9.0
>>> val("COC(=O)C(Cc1ccc(Cl)cc1)N1C(=O)CSC1=Nc1cc(-n2c(=O)cc(C(F)(F)F)n(C)c2=O)c(F)cc1Cl (racemic)")
0.0
>>> val("CCOC(=O)[C@H](Cc1ccccc1)N1C(=O)CSC1=Nc1cc(-n2c(=O)cc(C(F)(F)F)n(C)c2=O)c(F)cc1Cl")
4.0

====

# System: ABUTH (Velvetleaf)
# protocol: Preemergence herbicidal evaluation
# Assay type: in vivo, Abutilon theophrasti
# conditions: rate 0.0156 kg/ha; rated 4-5 weeks after treatment
reported.property: Preemergence herbicidal rating ABUTH

>>> val("CC(C)C[C@@H](C(=O)O)N1C(=O)CSC1=Nc1cc(-n2c(=O)cc(C(F)(F)F)n(C)c2=O)c(F)cc1Cl")
1.0
>>> val("CC(C)OC(=O)CN1C(=O)CSC1=Nc1cc(-n2c(=O)cc(C(F)(F)F)n(C)c2=O)c(F)cc1Cl")
5.5
>>> val("CC(C)COC(=O)CN1C(=O)CSC1=Nc1cc(-n2c(=O)cc(C(F)(F)F)n(C)c2=O)c(F)cc1Cl")
9.0
>>> val("CCOC(=O)CN1C(=O)C(Cc2ccccc2OCC(=O)O)S/C1=N/c1cc(-n2c(=O)cc(C(F)(F)F)n(C)c2=O)c(F)cc1Cl (stereo not drawn)")
0.0
>>> val("Cn1c(C(F)(F)F)cc(=O)n(-c2cc(N=C3NC(=O)CS3)c(Cl)cc2F)c1=O")
0.0
>>> val("CCOC(=O)CN1C(=O)C(CCO)S/C1=N/c1cc(-n2c(=O)cc(C(F)(F)F)n(C)c2=O)c(F)cc1Cl (stereo not drawn)")
9.0
>>> val("Cn1c(C(F)(F)F)cc(=O)n(-c2cc(N=C3SCC(=O)N3CC(=O)OC(C)(C)C)c(Cl)cc2F)c1=O")
9.0
>>> val("CCOC(=O)[C@H](Cc1ccccc1)N1C(=O)CSC1=Nc1cc(-n2c(=O)cc(C(F)(F)F)n(C)c2=O)c(F)cc1Cl")
0.0
>>> val("CCOC(=O)CN1C(=O)C(CC(=O)Nc2ccccc2)SC1=Nc1cc(-n2c(=O)cc(C(F)(F)F)n(C)c2=O)c(F)cc1Cl (stereo not drawn)")
0.0
>>> val("Cn1c(C(F)(F)F)cc(=O)n(-c2cc(N=C3SCC(=O)N3CC(=O)OC3CCCC3)c(Cl)cc2F)c1=O")
0.0
>>> val("C#CCOC(=O)CC1SC(=Nc2cc(-n3c(=O)cc(C(F)(F)F)n(C)c3=O)c(F)cc2Cl)N(CC=C)C1=O (stereo not drawn)")
1.0
>>> val("CCOC(=O)CN1C(=O)C(C(=O)OC)SC1=Nc1cc(-n2c(=O)cc(C(F)(F)F)n(C)c2=O)c(F)cc1Cl (stereo not drawn)")
0.0

====

# Test system: CYPSE (Flatsedge)
# protocol: Preemergence weed control under flooded paddy conditions
# Type: in vivo, Cyperus serotinus
# conditions: 0.1250 kg/ha, rated 3-4 weeks after treatment
reported.property: herbicidal effect rating, CYPSE

>>> val("CN(C)c1ccc(CN2C(=O)CSC2=Nc2cc(-n3c(=O)cc(C(F)(F)F)n(C)c3=O)c(F)cc2Cl)cc1")
0.0
>>> val("Cn1c(C(F)(F)F)cc(=O)n(-c2cc(N=C3SCC(=O)N3Cc3ccc(C(F)(F)F)cc3)c(Cl)cc2F)c1=O")
0.0
>>> val("CC(C)S(=O)(=O)NC(=O)CC1SC(=Nc2cc(-n3c(=O)cc(C(F)(F)F)n(C)c3=O)c(F)cc2Cl)N(C)C1=O (stereo not drawn)")
0.0
>>> val("CCOC(=O)CN1C(=O)C(OC)SC1=Nc1cc(-n2c(=O)cc(C(F)(F)F)n(C)c2=O)c(F)cc1Cl (stereo not drawn)")
3.0
>>> val("CC(C)N1C(=O)CSC1=Nc1cc(-n2c(=O)cc(C(F)(F)F)n(C)c2=O)c(F)cc1Cl")
3.0
>>> val("COc1cc(CN2C(=O)CSC2=Nc2cc(-n3c(=O)cc(C(F)(F)F)n(C)c3=O)c(F)cc2Cl)cc(OC)c1OC")
0.0

====

Reported Preemergence herbicidal rating SETVI is given for each of the following compounds.
# Tested on: SETVI (Foxtail, Green)
# protocol: Preemergence herbicidal evaluation
# Format: in vivo, Setaria viridis
# conditions: rate 0.1250 kg/ha; rated 4-5 weeks after treatment
reported.property: Preemergence herbicidal rating SETVI

>>> val("Cn1c(C(F)(F)F)cc(=O)n(-c2cc(N=C3SCC(=O)N3CC(=O)OCC3CCCCC3)c(Cl)cc2F)c1=O [Compound 123]")
9.0
>>> val("CCOC(=O)CN1C(=O)C(Cc2ccccc2OC)SC1=Nc1cc(-n2c(=O)cc(C(F)(F)F)n(C)c2=O)c(F)cc1Cl (centres unmarked) [Compound 37]")
0.0
>>> val("CCOC(=O)CN1C(=O)C(CC(=O)Nc2ccccc2)SC1=Nc1cc(-n2c(=O)cc(C(F)(F)F)n(C)c2=O)c(F)cc1Cl (centres unmarked) [Compound 68]")
0.0
>>> val("CC(C)C[C@@H](C(=O)O)N1C(=O)CSC1=Nc1cc(-n2c(=O)cc(C(F)(F)F)n(C)c2=O)c(F)cc1Cl [Compound 71]")
4.0
>>> val("CCOC(=O)CN1C(=O)C(CC(=O)O)SC1=Nc1cc(-n2c(=O)cc(C(F)(F)F)n(C)c2=O)c(Cl)cc1Cl (centres unmarked) [Compound 33]")
3.0

====

# Tested on: TRZAWR (Wheat, Winter, cv Riband)
# protocol: Preemergence herbicidal evaluation
# Type: in vivo, Triticum aestivum
# conditions: rate 0.1250 kg/ha; rated 4-5 weeks after treatment; rating scale 0-9
# Text: Results of herbicide evaluation are expressed on a rating scale (0-9). The scale is based upon a visual observation of plant stand, vigor, malformation, size, chlorosis and overall plant appearance as compared with a control. […] The compounds evaluated are reported by compound number given in Example 37.
reported.property: Preemergence herbicidal rating TRZAWR

>>> val("CCOC(=O)CN1C(=O)C(Br)SC1=Nc1cc(-n2c(=O)cc(C(F)(F)F)n(C)c2=O)c(F)cc1Cl (stereo not shown) [Compound 153]")
0.0
>>> val("Cc1ccc(CN2C(=O)CSC2=Nc2cc(-n3c(=O)cc(C(F)(F)F)n(C)c3=O)c(F)cc2Cl)cc1Cl [Compound 149]")
0.0
>>> val("Cn1c(C(F)(F)F)cc(=O)n(-c2cc(N=C3SCC(=O)N3Cc3ccc(C(F)(F)F)cc3)c(Cl)cc2F)c1=O [Compound 141]")
0.0
>>> val("Cn1c(C(F)(F)F)cc(=O)n(-c2cc(N=C3SCC(=O)N3Cc3cccc(Cl)c3)c(Cl)cc2F)c1=O [Compound 136]")
1.0
